# assayed-target: Delta-type opioid receptor (Homo sapiens); further: in other assays of this panel Not Active means under 50% inhibition at 10 µM
# Assay type: cell membranes, HEK293, Membrane
# assay-setup: read-out: IC50
endpoint-name: pIC50
Answer as the number alone; pIC50 is minus log10 of concentration in mol/L.

pIC50 on Delta-type opioid receptor (Homo sapiens) for CC/C(=C(\c1ccccc1)c1ccc(OCCN(C)C)cc1)c1ccccc1 [TAMOXIFEN] is 4.87

###

# assayed-target: Delta-type opioid receptor (Homo sapiens, UniProt P41143); further: in other assays of this panel Not Active means under 50% inhibition at 10 µM
# Sequence (P41143 whole entry): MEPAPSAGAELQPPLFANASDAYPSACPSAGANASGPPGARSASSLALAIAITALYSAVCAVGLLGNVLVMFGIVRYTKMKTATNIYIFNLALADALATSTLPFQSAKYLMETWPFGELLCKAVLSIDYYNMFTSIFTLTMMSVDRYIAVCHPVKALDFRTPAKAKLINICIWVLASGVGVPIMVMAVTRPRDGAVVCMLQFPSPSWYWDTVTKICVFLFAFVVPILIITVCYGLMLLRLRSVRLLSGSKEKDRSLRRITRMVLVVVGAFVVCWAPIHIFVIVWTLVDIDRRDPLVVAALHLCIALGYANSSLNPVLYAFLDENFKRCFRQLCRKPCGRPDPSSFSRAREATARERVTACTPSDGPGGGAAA
# Type: cell membranes, HEK293, Membrane
# assay-setup: hek293
endpoint-name: IC50

Answered cases to consult:
> print(dat)
                              sample.smiles      result
1    CN1CCN(CCCN2c3ccccc3Sc3ccc(Cl)cc32)CC1  Not Active
2  Cc1onc(-c2ccccc2Cl)c1C(=O)N[C@@H]1C(=O)N2[C@@H]1SC(C)(C)[C@@H]2C(=O)O  Not Active
3  CCn1cc(C(=O)O)c(=O)c2cc(F)c(N3CCNCC3)cc21  Not Active
4  O=c1[nH]c(=O)n([C@H]2C[C@H](O)[C@@H](CO)O2)cc1I  Not Active
5                  Nc1nc2nc[nH]c2c(=S)[nH]1  Not Active
6  COc1cc2c3cc1Oc1cc(ccc1O)C[C@@H]1c4c(cc(OC)c(O)c4Oc4ccc(cc4)C[C@@H]3N(C)CC2)CC[N+]1(C)C.[Cl-]  Not Active
7  O=c1ncn2nc(Sc3ccc(F)cc3F)ccc2c1-c1c(Cl)cccc1Cl  Not Active

Note to self: IC50 recorded for CC[C@@H](CO)NC(=O)[C@@H]1C=C2c3cccc4[nH]cc(c34)C[C@H]2N(C)C1 was Not Active

###

# assayed-target: Adenosine receptor A2a (Homo sapiens, UniProt P29274)
# Sequence (P29274 whole entry): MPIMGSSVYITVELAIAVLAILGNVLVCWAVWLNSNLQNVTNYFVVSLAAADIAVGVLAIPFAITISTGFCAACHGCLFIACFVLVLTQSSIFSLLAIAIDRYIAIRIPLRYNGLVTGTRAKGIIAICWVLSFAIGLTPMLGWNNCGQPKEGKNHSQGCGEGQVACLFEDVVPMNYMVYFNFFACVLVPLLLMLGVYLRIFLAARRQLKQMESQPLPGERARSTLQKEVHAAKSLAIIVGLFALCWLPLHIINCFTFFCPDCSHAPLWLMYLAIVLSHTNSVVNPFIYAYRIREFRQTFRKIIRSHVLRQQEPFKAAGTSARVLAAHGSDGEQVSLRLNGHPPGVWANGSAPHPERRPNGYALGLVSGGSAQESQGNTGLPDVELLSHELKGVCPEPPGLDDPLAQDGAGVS
# method: DRUGMATRIX: Adenosine A2A radioligand binding (ligand: […])
# Assay type: cell membranes, Membrane
# assay-setup: hek293; Not Active = under 50% inhibition at 10 µM

molecule	IC50
Nc1nc2c(ncn2COCCO)c(=O)[nH]1 [ACYCLOVIR]	Not Active
O=C(O)CCCc1ccc(N(CCCl)CCCl)cc1 [CHLORAMBUCIL]	Not Active
CC[C@@]1(O)C[C@H](O[C@H]2C[C@H](N(C)C)[C@H](O[C@H]3C[C@H](O)[C@H](O[C@H]4CCC(=O)[C@H](C)O4)[C@H](C)O3)[C@H](C)O2)c2c(cc3c(c2O)C(=O)c2c(O)cccc2C3=O)[C@H]1C(=O)OC [ACLARUBICIN]	Not Active
Cc1ccccc1N1C(=O)c2cc(S(N)(=O)=O)c(Cl)cc2NC1C (centres undefined) [METOLAZONE]	Not Active

###

# assayed-target: Cytochrome P450 2D6 (Homo sapiens, UniProt P10635); further: in other assays of this panel Not Active means under 50% inhibition at 10 µM
# Sequence (P10635 whole entry): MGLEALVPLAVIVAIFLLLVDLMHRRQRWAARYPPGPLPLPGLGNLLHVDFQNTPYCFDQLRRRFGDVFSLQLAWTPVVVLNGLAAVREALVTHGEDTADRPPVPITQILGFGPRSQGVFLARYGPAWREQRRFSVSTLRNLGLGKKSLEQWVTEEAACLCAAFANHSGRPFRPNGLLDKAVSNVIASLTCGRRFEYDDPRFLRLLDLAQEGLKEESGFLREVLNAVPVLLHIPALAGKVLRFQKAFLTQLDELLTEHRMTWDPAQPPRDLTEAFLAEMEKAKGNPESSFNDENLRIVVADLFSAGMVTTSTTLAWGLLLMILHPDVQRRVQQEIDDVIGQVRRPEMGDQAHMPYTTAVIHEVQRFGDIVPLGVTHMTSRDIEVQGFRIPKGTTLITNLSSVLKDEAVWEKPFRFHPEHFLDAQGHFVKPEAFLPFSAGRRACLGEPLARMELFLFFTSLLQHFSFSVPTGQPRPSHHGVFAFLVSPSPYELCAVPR
# assay-setup: bti-tn-5b1-4
endpoint-name: Ki

Answered cases to consult:
compound	Ki
CC(=O)O[C@@]12CO[C@@H]1C[C@H](O)[C@@]1(C)C(=O)[C@H](O)C3=C(C)[C@@H](OC(=O)[C@H](O)[C@@H](NC(=O)OC(C)(C)C)c4ccccc4)C[C@@](O)([C@@H](OC(=O)c4ccccc4)[C@H]21)C3(C)C.O.O.O	Not Active
NC[C@H]1CC[C@H](C(=O)O)CC1	Not Active
NS(=O)(=O)c1cc2c(cc1Cl)NC(C(Cl)Cl)NS2(=O)=O (centres undefined) [TRICHLORMETHIAZIDE]	Not Active
COc1cc2c3cc1Oc1cc(ccc1O)C[C@@H]1c4c(cc(OC)c(O)c4Oc4ccc(cc4)C[C@@H]3N(C)CC2)CC[N+]1(C)C.[Cl-]	Not Active
C[C@H]1O[C@@H](O[C@H]2[C@@H](O)C[C@H](O[C@H]3[C@@H](O)C[C@H](O[C@H]4CC[C@@]5(C)[C@H](CC[C@@H]6[C@@H]5C[C@@H](O)[C@]5(C)[C@@H](C7=CC(=O)OC7)CC[C@]65O)C4)O[C@@H]3C)O[C@@H]2C)C[C@H](O)[C@@H]1O	Not Active
Cc1cc(C(C#N)c2ccc(Cl)cc2)c(Cl)cc1NC(=O)c1cc(I)cc(I)c1O (centres undefined)	Not Active
CCCOc1ccccc1-c1nc2nn[nH]c2c(=O)[nH]1	Not Active
CNCCCN1c2ccccc2CCc2ccccc21	Not Active
O=c1ncn2nc(Sc3ccc(F)cc3F)ccc2c1-c1c(Cl)cccc1Cl	Not Active
COc1nc(C)nc(Cl)c1NC1=NCCN1	Not Active

Note to self: Ki recorded for CC1Cc2ccccc2N1NC(=O)c1ccc(Cl)c(S(N)(=O)=O)c1 (centres undefined) [INDAPAMIDE] was Not Active

Note to self: Ki recorded for Nc1nc2nc[nH]c2c(=S)[nH]1 was Not Active

Note to self: Ki recorded for CC(C)N1CCN(c2ccc(OCC3COC(Cn4cncn4)(c4ccc(Cl)cc4Cl)O3)cc2)CC1 (centres undefined) was Not Active

Note to self: Ki recorded for CC(C)[C@@]1(NC(=O)[C@@H]2C[C@@H]3c4cccc5[nH]cc(c45)C[C@H]3N(C)C2)O[C@@]2(O)[C@@H]3CCCN3C(=O)[C@H](Cc3ccccc3)N2C1=O.CS(=O)(=O)O [DIHYDROERGOCRISTINE MESYLATE] was Not Active

Note to self: Ki recorded for CC(C)C(=O)Nc1ccc([N+](=O)[O-])c(C(F)(F)F)c1 [FLUTAMIDE] was Not Active

Note to self: Ki recorded for Cc1oncc1C(=O)Nc1ccc(C(F)(F)F)cc1 [LEFLUNOMIDE] was Not Active

Note to self: Ki recorded for CC(C)[C@H]1C(=O)N2CCC[C@H]2[C@]2(O)O[C@](NC(=O)[C@@H]3C=C4c5cccc6[nH]cc(c56)C[C@H]4N(C)C3)(C(C)C)C(=O)N12 was Not Active

Note to self: Ki recorded for CCCCc1nc(Cl)c(CO)n1Cc1ccc(-c2ccccc2-c2nnn[nH]2)cc1 was Not Active

###

# assayed-target: Adenosine receptor A2a (Homo sapiens, UniProt P29274)
# method: DRUGMATRIX: Adenosine A2A radioligand binding (ligand: […])
# Assay type: cell membranes, Membrane
# assay-setup: hek293; Not Active = under 50% inhibition at 10 µM
endpoint-name: IC50

compound	endpoint-name	result
O=c1[nH]c(=O)n([C@H]2C[C@H](O)[C@@H](CO)O2)cc1I [IDOXURIDINE]	IC50	Not Active
C1CCC(C(CC2CCCCN2)C2CCCCC2)CC1 (stereo not drawn) [PERHEXILINE]	IC50	Not Active
CC(=O)[C@@]1(O)CC[C@H]2[C@@H]3C[C@H](C)C4=CC(=O)CC[C@]4(C)[C@H]3CC[C@@]21C	IC50	Not Active
CC[C@]1(O)C[C@H]2CN(CCc3c([nH]c4ccccc34)[C@@](C(=O)OC)(c3cc4c(cc3OC)N(C=O)[C@H]3[C@@](O)(C(=O)OC)[C@H](OC(C)=O)[C@]5(CC)C=CCN6CC[C@]43[C@@H]65)C2)C1 [VINCRISTINE]	IC50	Not Active
Cc1cc(C2CCCCC2)n(O)c(=O)c1 [CICLOPIROX]	IC50	Not Active
CN(C)CCCN1c2ccccc2Sc2ccccc21 [PROMAZINE]	IC50	Not Active
CNCCc1ccccn1 [BETAHISTINE]	IC50	Not Active

Consider the record given below.
Note to self: IC50 recorded for O=c1oc2ccccc2c(O)c1Cc1c(O)c2ccccc2oc1=O [DICUMAROL] was Not Active

###

# assayed-target: UniProt P49146
# Sequence (P49146 whole entry): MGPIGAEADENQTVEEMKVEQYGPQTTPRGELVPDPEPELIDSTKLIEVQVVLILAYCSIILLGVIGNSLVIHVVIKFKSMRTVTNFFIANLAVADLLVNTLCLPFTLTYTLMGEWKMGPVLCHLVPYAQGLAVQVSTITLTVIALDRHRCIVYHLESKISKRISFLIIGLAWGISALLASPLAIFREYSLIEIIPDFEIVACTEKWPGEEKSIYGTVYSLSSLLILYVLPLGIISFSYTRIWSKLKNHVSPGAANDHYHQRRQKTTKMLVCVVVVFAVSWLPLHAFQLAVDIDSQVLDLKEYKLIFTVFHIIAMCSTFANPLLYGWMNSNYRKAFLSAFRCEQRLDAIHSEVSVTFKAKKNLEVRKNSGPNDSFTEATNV
# Format: cell membranes, Membrane
# assay-setup: kan-ts
endpoint-name: IC50

Answered cases to consult:
compound	assayed-target	IC50
CC(C)[C@@]1(NC(=O)[C@@H]2C[C@@H]3c4cccc5[nH]cc(c45)C[C@H]3N(C)C2)O[C@@]2(O)[C@@H]3CCCN3C(=O)[C@H](Cc3ccccc3)N2C1=O.CS(=O)(=O)O [DIHYDROERGOCRISTINE MESYLATE]	UniProt P49146	Not Active
c1ccc(Nc2ccc(Nc3ccccc3)cc2)cc1	UniProt P49146	Not Active
Cc1nc2n(c(=O)c1CCN1CCC(c3noc4cc(F)ccc34)CC1)CCCC2	UniProt P49146	Not Active
C[C@H](CCC(=O)O)[C@H]1CC[C@H]2[C@@H]3[C@H](O)C[C@@H]4C[C@H](O)CC[C@]4(C)[C@H]3C[C@H](O)[C@]12C	UniProt P49146	Not Active
C[C@H]1c2cccc(O)c2C(=O)C2=C(O)[C@]3(O)C(=O)C(C(N)=O)=C(O)[C@@H](N(C)C)[C@@H]3[C@@H](O)[C@@H]21.O	UniProt P49146	Not Active
O=c1oc2ccccc2c(O)c1Cc1c(O)c2ccccc2oc1=O	UniProt P49146	Not Active

IC50 on UniProt P49146 for N=C(N)NCCN1CCCCCCC1 is Not Active
